The reported numbers originate from the supplement of paper PMC8728848.

molecular target: Gal(a1-3)GalNAc; test: glycan array binding signal (z-score within array); higher = stronger binding; settings: glycan notation: IUPAC condensed, linker removed
This excerpt belongs to a sample that is enriched for the strongest signals.
property: glycan array binding signal (z-score)

INSERT INTO measurements (binder, property, observed) VALUES
  ('SAG3 (Toxoplasma gondii), Q9BJ39 (protein) MQLWRRRAAGPASLGRQSLPLGCFFAAFGLCVLSAILGTGERGLFVAAGNSRRKITYFGTLTQKAPNWYRCSSTRAKEEVVGHVTLNKEHPDMTIECVDDGLGGEFLPLEGARSSYPRVCHIDAKDQDDCERNRGFLTDYIPGAKQYWYKIEKVEQNGEQSVLYKFTVPWILLPPAKQRYKVGCRYPNHEYCFVEVTVEPTPPMVEGKRVTCGYSESGPVNLEVDLSKNANFIEIRCGEQHHPQPSTYTLQYCSGDSVDPQKCSPQSLTNIFYDYSSSWWKGKLNGPDGATLTIPPGGFPEEDKSFLVGCSLTVDGPPFCNVKVRVAGNPRKWERGGGGHPGSGGLQPGTDGETQAGTGSSAGASSRMASVALAFLLGLLVHVAA', 'glycan array binding signal (z-score)', -0.176);
